# protocol description: Aquatic toxicity according to Method 2007
# condition label: in vivo, Mysidopsis Bahia
measured metric: LC50 at 96 h (µg/mL)

1) CCCCCCCCCCCCCCCC[N+](C)(C)C [CTAB, cetyl trimethyl ammonium bromide] : 0.2
